Each entry below carries its reported growth inhibition.
test: NCI Yeast Anticancer Drug Screen. Data for the cln2 rad14 strain (AID 165);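 also: 0% = growth equal to vehicle treated cultures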
experimental setup: S. cerevisiae cln2 rad14 strain, hits give high values; at 50.0 µM unless noted
This is part of a sample that, as a whole, favours compounds with a hit. Of some 79,000 tested, about 15% had one in any assay.
State just the number; it will be interpreted in %.

# example entries with known answers
O=CNC1c2ccccc2CCc2ccccc21 ... -2.45
CN(/C(=C/C(=O)c1ccccc1)C(=O)c1ccccc1)/C(=C/C(=O)c1ccccc1)C(=O)c1ccccc1 ... -5.25
O=C(O)C1CCC(=O)N1Cc1c[nH]c2ccccc12 (stereo not drawn) ... -0.15
O=C(CCCC1CCCCC1)OC1CCCCC1 ... -8.05
CCCCCC[N+](C)(C)C ... 6.75
c1ccc(C2c3ccccc3CN2c2ccccc2)cc1 (stereo not drawn) ... 9.4
C/C=C/C(=O)Nc1cccc(OC(=O)NC(C)(C)C)c1 ... -2
O=C1OCCOCCOCCOCCOC(=O)c2cccc1n2 ... 17.1
C=C(Br)CN(C#N)CC(=C)Br ... -4.25
CC(C)C(=O)NCC[C@@H](CNC(=O)OC(C)(C)C)NC(=O)OC(C)(C)C ... -3.85

Query CC(=O)Nc1cccc(Br)c1 yields growth inhibition of -12.8

Query O=C(N/N=C/c1ccc(Cl)cc1)c1cccc([N+](=O)[O-])c1 yields growth inhibition of 4.25

Query CCS(=O)(=O)/C=C/c1cccs1 yields growth inhibition of -47.6
